- tested target: TAOK1 (Homo sapiens, UniProt Q7L7X3)
- Sequence (Q7L7X3 whole entry): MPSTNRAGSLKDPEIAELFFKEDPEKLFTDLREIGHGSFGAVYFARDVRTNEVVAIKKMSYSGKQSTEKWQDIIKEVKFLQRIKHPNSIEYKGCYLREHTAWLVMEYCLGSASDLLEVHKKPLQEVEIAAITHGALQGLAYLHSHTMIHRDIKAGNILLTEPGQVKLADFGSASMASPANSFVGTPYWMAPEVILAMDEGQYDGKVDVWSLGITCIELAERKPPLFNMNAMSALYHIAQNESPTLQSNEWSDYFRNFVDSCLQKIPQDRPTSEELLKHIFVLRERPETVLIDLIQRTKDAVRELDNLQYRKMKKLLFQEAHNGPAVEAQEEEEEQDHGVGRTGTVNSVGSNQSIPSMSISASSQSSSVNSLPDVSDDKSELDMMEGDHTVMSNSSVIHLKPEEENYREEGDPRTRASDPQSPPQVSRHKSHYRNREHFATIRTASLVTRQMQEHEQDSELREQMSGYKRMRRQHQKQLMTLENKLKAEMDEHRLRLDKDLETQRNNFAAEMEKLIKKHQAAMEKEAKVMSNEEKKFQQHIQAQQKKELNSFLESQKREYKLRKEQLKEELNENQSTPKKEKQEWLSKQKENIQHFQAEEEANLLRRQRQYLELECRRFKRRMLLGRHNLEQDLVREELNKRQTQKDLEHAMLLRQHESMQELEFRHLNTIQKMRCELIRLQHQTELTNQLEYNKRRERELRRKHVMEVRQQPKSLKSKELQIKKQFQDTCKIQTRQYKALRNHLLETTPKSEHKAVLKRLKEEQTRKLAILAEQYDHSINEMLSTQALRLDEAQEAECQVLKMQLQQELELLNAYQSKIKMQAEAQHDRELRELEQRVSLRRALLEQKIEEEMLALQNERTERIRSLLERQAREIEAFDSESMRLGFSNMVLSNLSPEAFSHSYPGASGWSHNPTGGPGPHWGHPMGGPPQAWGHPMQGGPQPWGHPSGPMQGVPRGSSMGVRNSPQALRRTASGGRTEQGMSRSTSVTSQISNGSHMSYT
- test: biochemical
- condition parameters: read-out: KDapp
property: Kd (µM)

CN(C)CC(O)COc1ccc(Nc2ncc([N+](=O)[O-])c(Nc3ccccc3O)n2)cc1.O=C(O)C(F)(F)F (stereo not shown) : 4.3

----------
- tested target: AURKB (Homo sapiens)
- Sequence (Q96GD4 whole entry): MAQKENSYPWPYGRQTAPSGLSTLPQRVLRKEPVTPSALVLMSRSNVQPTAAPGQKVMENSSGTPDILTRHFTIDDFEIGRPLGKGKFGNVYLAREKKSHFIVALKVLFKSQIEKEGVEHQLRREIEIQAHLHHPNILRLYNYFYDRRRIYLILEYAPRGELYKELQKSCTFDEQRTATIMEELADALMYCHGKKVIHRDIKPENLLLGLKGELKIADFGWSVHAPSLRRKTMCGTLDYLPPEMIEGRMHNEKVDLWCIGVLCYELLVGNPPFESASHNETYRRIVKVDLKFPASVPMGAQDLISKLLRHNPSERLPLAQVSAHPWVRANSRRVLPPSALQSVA
- test: biochemical
pIC50: −log10 of the molar value.
property: pIC50

CN(C)CC(O)COc1ccc(Nc2ncc([N+](=O)[O-])c(Nc3ccccc3O)n2)cc1.O=C(O)C(F)(F)F (centres unmarked) : 5.38

----------
- tested target: PKG (Plasmodium falciparum)
- Sequence (Q8I719 whole entry): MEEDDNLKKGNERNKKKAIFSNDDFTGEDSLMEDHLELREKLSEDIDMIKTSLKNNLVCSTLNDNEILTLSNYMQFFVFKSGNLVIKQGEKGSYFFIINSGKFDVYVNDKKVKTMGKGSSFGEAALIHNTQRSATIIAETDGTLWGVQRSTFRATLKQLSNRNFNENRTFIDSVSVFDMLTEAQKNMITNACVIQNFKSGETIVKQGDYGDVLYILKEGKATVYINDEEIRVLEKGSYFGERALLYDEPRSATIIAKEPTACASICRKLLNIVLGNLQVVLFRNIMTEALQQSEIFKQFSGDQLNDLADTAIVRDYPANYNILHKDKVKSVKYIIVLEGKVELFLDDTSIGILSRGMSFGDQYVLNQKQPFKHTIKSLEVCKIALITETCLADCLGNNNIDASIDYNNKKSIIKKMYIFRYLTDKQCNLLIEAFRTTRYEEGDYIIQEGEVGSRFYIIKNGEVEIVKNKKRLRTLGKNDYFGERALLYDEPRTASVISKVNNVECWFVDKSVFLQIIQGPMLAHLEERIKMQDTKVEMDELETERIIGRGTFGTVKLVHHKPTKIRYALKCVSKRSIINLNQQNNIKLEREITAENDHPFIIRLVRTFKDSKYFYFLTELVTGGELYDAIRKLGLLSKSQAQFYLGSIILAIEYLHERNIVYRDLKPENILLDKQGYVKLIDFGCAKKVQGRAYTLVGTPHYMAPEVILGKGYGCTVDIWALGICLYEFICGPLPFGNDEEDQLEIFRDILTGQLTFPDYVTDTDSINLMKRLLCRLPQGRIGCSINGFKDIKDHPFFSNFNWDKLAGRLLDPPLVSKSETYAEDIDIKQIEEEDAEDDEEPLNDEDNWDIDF
- test: PKG IC50 (supplementary data file)
- Format: biochemical
Lab note - cut at 2000 nM for IC50: y if strictly below, n if not.

Cc1cccc(Nc2nc(NCCCCN)nc3cc[nH]c(=O)c23)c1.O=C(O)C(F)(F)F [TCMDC-134946] : y
CCn1c(-c2nonc2N)nc2c(-c3cccc(NC(=O)Nc4ccc(C(F)(F)F)cc4)c3)ncc(OCCCN)c21.O=C(O)C(F)(F)F [TCMDC-136179] : y
CCn1c(-c2nonc2N)nc2c(-c3cccc(NC(=O)Nc4ccc(C#N)cc4)c3)ncc(OCCCN)c21.O=C(O)C(F)(F)F [TCMDC-136194] : y
Cc1n[nH]c2ccc(-c3cc(OC[C@@H](N)Cc4ccccc4)cnc3-c3cc4ccccc4s3)cc12.O=C(O)C(F)(F)F [TCMDC-136352] : n
CCn1c(-c2nonc2N)nc2c(-c3cccc(NC(=O)NC45CC6CC(CC(C6)C4)C5)c3)ncc(OCCCN)c21.O=C(O)C(F)(F)F [TCMDC-136246] : y
O=C(Nc1cccc(-c2nn3ccccc3c2-c2ccnc(Nc3ccc(NCCCN4CCOCC4)c(F)c3)n2)c1)c1c(F)cccc1F [TCMDC-135921] : n
NS(=O)(=O)c1cccc(Nc2nc(N[C@@H]3CCNC3)nc3cc[nH]c(=O)c23)c1.O=C(O)C(F)(F)F [TCMDC-135057] : y
O=C(O)C(F)(F)F.O=c1[nH]ccc2nc(N[C@@H]3CCNC3)nc(Nc3cc(Cl)cc(Cl)c3)c12 [TCMDC-135052] : y
O=C(Nc1c(F)cccc1F)c1cccc(-c2nn3ccccc3c2-c2ccnc(Nc3cccc(-c4cnco4)c3)n2)c1 [TCMDC-135743] : n
NS(=O)(=O)c1cccc(Nc2nccc(-c3c(-c4cccc(NC(=O)c5c(F)cccc5F)c4)nn4ccccc34)n2)c1 [TCMDC-135780] : n
O=C(NC1CC1)c1ccc(Nc2nccc(-c3c(-c4cccc(NC(=O)c5c(F)cccc5F)c4)nn4ccccc34)n2)cc1 [TCMDC-136002] : n
CN1CCN(c2ccc(Nc3ncc(C#N)c(Nc4ccccc4C(N)=O)n3)cc2)CC1.Cl [TCMDC-134116] : y
Cl.NC[C@H](CC1CCCCC1)NC(=O)c1ccc(-c2ccnc3[nH]ccc23)s1 [TCMDC-134150] : y
CCn1c(-c2nonc2N)nc2c(-c3ccccc3)ncc(OCCCNCCCN3CCOCC3)c21.O=C(O)C(F)(F)F [TCMDC-135858] : y
Cc1cc(Nc2ncc(C#N)c(Nc3ccccc3C(N)=O)n2)ccc1N1CCN(C)CC1.Cl [TCMDC-134115] : y
CCn1c(-c2nonc2N)nc2c(-c3cc4ccccc4s3)ncc(C(=O)N3CCC(N)C3)c21.O=C(O)C(F)(F)F (centres unmarked) [TCMDC-135281] : n
O=C(Nc1cccc(-c2nn3ccccc3c2-c2ccnc(Nc3ccc(-c4cc[nH]n4)cc3)n2)c1)c1c(F)cccc1F [TCMDC-135915] : n
NS(=O)(=O)c1cccc(N/C=C2\C(=O)Nc3ccc(S(=O)(=O)Cc4c(Cl)cccc4Cl)cc32)c1 [TCMDC-135947] : n
CCn1c(-c2nonc2N)nc2c(-c3cccc(NC(=O)Nc4ccc5c(c4)CCC5)c3)ncc(OCCCN)c21.O=C(O)C(F)(F)F [TCMDC-136191] : n
CCn1c(-c2nonc2N)nc2c(-c3cccc(Cl)c3)ncc(OCCCNCCc3c[nH]cn3)c21.O=C(O)C(F)(F)F [TCMDC-135919] : n
